test: Cytotoxicity against rat IEC-6 cells after 6 days by SRB colorimetric assay; assay type: cell-based; details: IEC-6, 144 h
pIC50: −log10 of the molar value.
parameter: pIC50

• COC(CN(c1ccccc1CO)S(=O)(=O)c1ccccc1[N+](=O)[O-])n1cnc2ncnc(Cl)c21 (racemic) = 4.92
• O=c1[nH]cc(F)c(=O)[nH]1 [FLUOROURACIL] = 6.18
• O=C(OCC1c2ccccc2-c2ccccc21)N1CC(n2cnc3c(Cl)ncnc32)OCc2ccccc21 (racemic) = 5.00
